# METHOD DESCRIPTION: SAH counterscreen inhibition (counterscreen of the MTase-Glo luminescence readout)
# EXPERIMENTAL CONDITIONS: read-out: SAH counterscreen inhibition: IC50; LUM % inhibition
IC50 by entry:

Consider the reported IC50 for these compounds:
Inquiry: Look up IC50: Cc1cc(C(=O)NCc2ccc(C(=O)NC(C)c3ccccc3C)nc2)ccc1O (centres unmarked)
Reply text: > 125 µM

Inquiry: Next compound: COc1ccc(-c2ocnc2C(=O)Nc2ccc3oc(=O)n(CC(=O)N4CCCCC4)c3c2)cc1
Reply text: > 125 µM

---
Inquiry: Look up IC50: Cc1cc(C)c(C(=O)NCc2ccc(CNC(=O)c3ccc(O)c(C)c3)cc2)cn1
Reply text: > 125 µM

Inquiry: Next compound: Cc1nc(C)c(C(=O)NCc2ccc(CNC(=O)c3ccc(O)c(F)c3)cc2)nc1C
Reply text: > 125 µM

Inquiry: Next compound: Cc1cccc(C(=O)NCC2CCC3(CN(C(=O)c4cc(C)c5[nH]ncc5c4)C3)O2)c1F (centres unmarked)
Reply text: > 125 µM

Inquiry: Next compound: CCn1nc(C)c(C(=O)NCCc2ccc(CNC(=O)c3ccc4[nH]ncc4c3)cc2)c1C
Reply text: > 125 µM

Inquiry: Next compound: C[C@@H](NC(=O)c1ccc(CNC(=O)c2ccc3[nH]ncc3c2)cc1)c1cccc(O)c1
Reply text: > 125 µM

Inquiry: Next compound: Cc1nccc(C(=O)NCC2CCC3(CN(C(=O)c4cc(C)c5[nH]ncc5c4)C3)O2)c1C (centres unmarked)
Reply text: > 125 µM

// data source = paper PMC12434519
